- TEST_PROTOCOL: Quantitative High-Throughput drug screen in 47 multiple myeloma cell lines against the NCATS MIPE library collection: PCM6_Riken cell viability assay (AID 1919870); further: nearly all actives have a fitted effect of over 30% in size
- CONDITION: CellTiter-Glo ATP, 48 h; series mostly up to 45.8 µM
Records with an inconclusive call do not appear. The source made the active and inactive calls. The call rests on the fitted dose curve; in most records, active means well fitted cell-killing curve with a large enough effect; inconclusive means small, poorly fitted or top-dose-only effect, or effect the other way; inactive means no such curve, though single readings can be large or run the other way.
Your response should consist of one outcome taken from yes = active, no = inactive

// below: answered compounds
[
  {
    "CHEMICAL_STRUCTURE": "COc1cc2c(cc1Cc1cccc(Cl)c1F)c(=O)c(C(=O)O)cn2[C@H](CO)C(C)C",
    "GROUP": "yes"
  },
  {
    "CHEMICAL_STRUCTURE": "CCCCc1ccc(NS(=O)(=O)c2ccc(C)c(C(=O)N3CCN(c4cccc(C)c4C)CC3)c2)cc1",
    "GROUP": "yes"
  },
  {
    "CHEMICAL_STRUCTURE": "CC[C@H]1OC(=O)[C@H](C)[C@@H](O[C@H]2C[C@@](C)(OC)[C@@H](O)[C@H](C)O2)[C@H](C)[C@@H](O[C@@H]2O[C@H](C)C[C@H](N(C)C)[C@H]2O)[C@](C)(O)C[C@H](C)C(=NOCOCCOC)[C@H](C)[C@@H](O)[C@]1(C)O",
    "GROUP": "no"
  }
]

Ask | Just curious, what result did `O=S(=O)(NCCNCC=Cc1ccc(Br)cc1)c1cccc2cnccc12` get here?
Reply | yes

Ask | Just curious, what result did `Cc1ccc(C(=O)N(CCCN)[C@@H](c2oc3cc(Cl)ccc3c(=O)c2Cc2ccccc2)C(C)C)cc1` get here?
Reply | yes

Ask | Just curious, what result did `COc1cc2nccc(Oc3ccc(NC(=O)Nc4ccc(F)cc4F)c(F)c3)c2cc1OC` get here?
Reply | no

Ask | Just curious, what result did `CCN1CCC(n2cc(CNc3cc(Cl)c4ncc(C#N)c(Nc5ccc(F)c(Cl)c5)c4c3)nn2)CC1` get here?
Reply | yes

Where do these numbers come from? They come from PubChem BioAssay (NCATS).
